All figures here come from patent US20240117334A1.

TEST_DESCRIPTION: Half-life in 50% human plasma of chymase-based engineered proteases
Type: in vitro ADME
REPORTED_CONDITIONS: EGVD′AE substrate
EXPERIMENTAL_ENDPOINT: t1/2 in 50% human plasma (min) (EGVD′AE)(SEQ ID NO: 13)
Respond numerically; units are min and should not be typed.

C22S/A190S/A226R (protein, listed as Homo sapiens) IIGGTESKPHSRPYMAYLEIVTSNGPSKFCGGFLIRRNFVLTAAHCAGRSITVTLGAHNITEEEDTWQKLEVIKQFRHPKYNTSTLHHDIMLLKLKEKASLTLAVGTLPFPSQFNFVPPGRMCRVAGWGRTGVLKPGSDTLQEVKLRLMDPQACSHFRDFDHNLQLCVGNPRKTKSSFKGDSGGPLLCAGVAQGIVSYGRSDAKPPRVFTRISHYRPWINQILQAN : 4.2

# input Respond only with t1/2 in 50% human plasma (min) (EGVD′AE)(SEQ ID NO: 13) recorded for C22S/F173Y/A226R (protein, listed as Homo sapiens) IIGGTESKPHSRPYMAYLEIVTSNGPSKFCGGFLIRRNFVLTAAHCAGRSITVTLGAHNITEEEDTWQKLEVIKQFRHPKYNTSTLHHDIMLLKLKEKASLTLAVGTLPFPSQFNFVPPGRMCRVAGWGRTGVLKPGSDTLQEVKLRLMDPQACSHYRDFDHNLQLCVGNPRKTKSAFKGDSGGPLLCAGVAQGIVSYGRSDAKPPRVFTRISHYRPWINQILQAN
# output 5.9

# input Give the reported value of t1/2 in 50% human plasma (min) (EGVD′AE)(SEQ ID NO: 13) for this record: C22S/D175N/A226R (protein, listed as Homo sapiens) IIGGTESKPHSRPYMAYLEIVTSNGPSKFCGGFLIRRNFVLTAAHCAGRSITVTLGAHNITEEEDTWQKLEVIKQFRHPKYNTSTLHHDIMLLKLKEKASLTLAVGTLPFPSQFNFVPPGRMCRVAGWGRTGVLKPGSDTLQEVKLRLMDPQACSHFRNFDHNLQLCVGNPRKTKSAFKGDSGGPLLCAGVAQGIVSYGRSDAKPPRVFTRISHYRPWINQILQAN
# output 6.2

# input Look up and report measured t1/2 in 50% human plasma (min) (EGVD′AE)(SEQ ID NO: 13) for this entry: C22S/S218I/A226R (protein, listed as Homo sapiens) IIGGTESKPHSRPYMAYLEIVTSNGPSKFCGGFLIRRNFVLTAAHCAGRSITVTLGAHNITEEEDTWQKLEVIKQFRHPKYNTSTLHHDIMLLKLKEKASLTLAVGTLPFPSQFNFVPPGRMCRVAGWGRTGVLKPGSDTLQEVKLRLMDPQACSHFRDFDHNLQLCVGNPRKTKSAFKGDSGGPLLCAGVAQGIVSYGRIDAKPPRVFTRISHYRPWINQILQAN
# output 7.8
